meta.source: ChEMBL document CHEMBL3244414

# System: Klebsiella pneumoniae
# assay.explanation: Antimicrobial activity against Klebsiella pneumoniae ATCC 10031 by agar dilution method
# Format: functional
# condition.label: Klebsiella pneumoniae, ATCC 10031; read-out: MIC

>  <compound>
CCCC(=O)O[C@H]1/C=C/C=C/C[C@@H](C)OC(=O)C[C@@H](OC(C)=O)[C@H](OC)[C@@H](O[C@@H]2O[C@H](C)[C@@H](O[C@H]3C[C@@](C)(O)[C@@H](OC(=O)CC(C)C)[C@H](C)O3)[C@H](N(C)C)[C@H]2O)[C@@H](CC=O)C[C@H]1C

>  <MIC (µg/mL)>
100

$$$$
>  <compound>
CO[C@@H]1[C@@H](O[C@@H]2O[C@H](C)[C@@H](O[C@H]3C[C@@](C)(O)[C@@H](OC(=O)CC(C)C)[C@H](C)O3)[C@H](N(C)C)[C@H]2O)[C@@H](CC=O)C[C@@H](C)[C@@H](OC(C)=O)/C=C/C=C/C[C@@H](C)OC(=O)C[C@H]1O

>  <MIC (µg/mL)>
50

$$$$
>  <compound>
CO[C@@H]1[C@@H](O[C@@H]2O[C@H](C)[C@@H](O[C@H]3C[C@@](C)(O)[C@@H](OC(C)=O)[C@H](C)O3)[C@H](N(C)C)[C@H]2O)[C@@H](CC=O)C[C@@H](C)[C@@H](O)/C=C/C=C/C[C@@H](C)OC(=O)C[C@H]1OC(C)=O

>  <MIC (µg/mL)>
100

$$$$
>  <compound>
CCC(=O)O[C@H]1/C=C/C=C/C[C@@H](C)OC(=O)C[C@@H](O)[C@H](OC)[C@@H](O[C@@H]2O[C@H](C)[C@@H](O[C@H]3C[C@@](C)(O)[C@@H](O)[C@H](C)O3)[C@H](N(C)C)[C@H]2O)[C@@H](CC=O)C[C@H]1C

>  <MIC (µg/mL)>
100

$$$$
>  <compound>
CCC(=O)O[C@H]1[C@H](C)O[C@@H](O[C@H]2[C@H](N(C)C)[C@@H](O)[C@H](O[C@H]3[C@@H](CC=O)C[C@@H](C)[C@@H](O)/C=C/C=C/C[C@@H](C)OC(=O)C[C@@H](OC(C)=O)[C@@H]3OC)O[C@@H]2C)C[C@@]1(C)O

>  <MIC (µg/mL)>
50

$$$$
>  <compound>
CCC(=O)O[C@H]1/C=C/C=C/C[C@@H](C)OC(=O)C[C@@H](O)[C@H](OC)[C@@H](O[C@@H]2O[C@H](C)[C@@H](O[C@H]3C[C@@](C)(O)[C@@H](OC(=O)C(C)CC)[C@H](C)O3)[C@H](N(C)C)[C@H]2O)[C@@H](CC=O)C[C@H]1C (some centres undefined)

>  <MIC (µg/mL)>
50

$$$$
>  <compound>
CCCC(=O)O[C@H]1[C@H](C)O[C@@H](O[C@H]2[C@H](N(C)C)[C@@H](O)[C@H](O[C@H]3[C@@H](CC=O)C[C@@H](C)[C@@H](OC(C)=O)/C=C/C=C/C[C@@H](C)OC(=O)C[C@@H](O)[C@@H]3OC)O[C@@H]2C)C[C@@]1(C)O

>  <MIC (µg/mL)>
25

$$$$
>  <compound>
CO[C@@H]1[C@@H](O[C@@H]2O[C@H](C)[C@@H](O[C@H]3C[C@@](C)(O)[C@@H](OC(=O)CC(C)C)[C@H](C)O3)[C@H](N(C)C)[C@H]2OC(C)=O)[C@@H](CC=O)C[C@@H](C)[C@@H](OC(C)=O)/C=C/C=C/C[C@@H](C)OC(=O)C[C@H]1OC(C)=O

>  <MIC (µg/mL)>
100

$$$$
>  <compound>
CC[C@H]1OC(=O)[C@H](C)[C@@H](O[C@H]2C[C@@](C)(OC)[C@@H](O)[C@H](C)O2)[C@H](C)[C@@H](O[C@@H]2O[C@H](C)C[C@H](N(C)C)[C@H]2O)[C@](C)(O)C[C@@H](C)C(=O)[C@H](C)[C@@H](O)[C@]1(C)O [ERYTHROMYCIN]

>  <MIC (µg/mL)>
6.3

$$$$
